- TESTED_ON: 3-keto-steroid reductase/17-beta-hydroxysteroid dehydrogenase 7 (Homo sapiens) (UniProt P56937)
- Sequence (P56937 whole entry): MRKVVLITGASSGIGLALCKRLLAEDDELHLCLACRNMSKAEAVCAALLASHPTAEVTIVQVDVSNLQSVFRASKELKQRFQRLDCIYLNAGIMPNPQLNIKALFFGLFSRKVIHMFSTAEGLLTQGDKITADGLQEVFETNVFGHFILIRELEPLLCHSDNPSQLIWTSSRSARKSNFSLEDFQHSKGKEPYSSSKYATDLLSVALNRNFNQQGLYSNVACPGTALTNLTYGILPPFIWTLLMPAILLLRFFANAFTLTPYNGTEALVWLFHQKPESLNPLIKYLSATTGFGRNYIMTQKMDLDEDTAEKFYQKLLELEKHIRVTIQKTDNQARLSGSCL
- RUN_PARAMETERS: HEK293, at 3 µM
- Description: Inhibition of human 17beta-HSD7 expressed in HEK293 cells assessed as inhibition of reduction of [14C]estrone into [14C]estradiol at 3 uM after 7 hrs
For each entry below, report its inhibition value.
Answers are plain numbers, in %.

| SAMPLE_SMILES | inhibition / % |
| --- | --- |
| CCCNC(=O)N(C1CC1)[C@H]1CC[C@H]2[C@@H]3CC[C@H]4N(C)C(=O)C=C[C@]4(C)[C@H]3CC[C@]12C | 8.5 |
| CC1(C)CC[C@@]2(CC[C@H]3[C@@H]4CCc5cc(C(N)=O)ccc5[C@H]4CC[C@@]32C)OC1=O | 27 |
| C[C@]12CC[C@@H]3c4ccc(O)cc4CC[C@H]3[C@@H]1C[C@@H](CCBr)[C@@H]2O | 4.5 |

Returns the measured inhibition for the input compound. Input: CC(=O)[C@H]1CC[C@H]2[C@@H]3CCC4=CC(=O)CC[C@]4(C)[C@H]3CC[C@]12C 19.1
